# assayed-target: Cytochrome P450 2C19 (Homo sapiens) (UniProt P33261)
# procedure-summary: NVS_ADME_hCYP2C19: NovaScreen (NVS) CYP450-related Enzyme Activity (ADME) Assay for human CYP2C19 (AID 2283113)
Records with an inconclusive call do not appear. Activity calls are given as the source filed them. Rule for the calls: active = hit-call score of the fitted dose curve at least 0.9, where 1 is the maximum; inconclusive = response in the unintended direction; inactive = score below 0.9.
Choose one outcome from this list and give only that: 1 (yes) = active, 0 (no) = inactive

Solved entries (count: 5):
CC(C)(C)c1cc(/C=C2\SC(N)=NC2=O)cc(C(C)(C)C)c1O :: 1 (yes)
CO[C@H]1/C=C/O[C@@]2(C)Oc3c(C)c(O)c4c(O)c(c(/C=N/N5CCN(C)CC5)c(O)c4c3C2=O)NC(=O)/C(C)=C\C=C\[C@H](C)[C@H](O)[C@@H](C)[C@@H](O)[C@@H](C)[C@H](OC(C)=O)[C@@H]1C :: 1 (yes)
COc1cc(C(=O)NC2CCN(C)CC2)ccc1Nc1ncc2c(n1)N(C1CCCC1)CC(F)(F)C(=O)N2C :: 1 (yes)
CCCCOC(=O)c1ccc(O)cc1 :: 1 (yes)
COc1ccc2cc(S(=O)(=O)N[C@H](CC(=O)N[C@H](Cc3ccc(CN4[C@H](C)CCC[C@@H]4C)cc3)C(=O)N(C)C(C)C)c3ccc4c(c3)OCO4)ccc2c1 :: 1 (yes)

Test call, this compound: O=C1c2ccccc2C(=O)N1CCc1noc(-c2ccc(CN3CCCCCC3)s2)n1
1 (yes)

Assay result, entry O=C1CCC(C2CCCCC2)CC1 — outcome?
0 (no)

Please let me know the test result on file for C[C@]12CC[C@@H]3c4ccc(O)cc4CC[C@H]3[C@@H]1CC[C@H]2O .
1 (yes)

Called result for Cc1cccc2ccccc12
0 (no)

###

# procedure-summary: CCTE_Shafer_MEA_acute_burst_percentage_std: CCTE's Neural Acute Assay for Standard Deviation of Burst Percentage, Shafer Lab (AID 2284018);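 note: fitted in the negative direction so actives lower burst percentage SD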
The source made the active and inactive calls. Rule for the calls: active = hit-call score of the fitted dose curve at least 0.9, where 1 is the maximum; inactive = score below 0.9.
Answer with one of the outcomes given here: active, inactive

Completed entries (count: 2):
COc1cccc([C@H](O)C2CCN(CCc3ccc(F)cc3)CC2)c1OC :: inactive
CN(C[C@@H](CC[N+]12CCC(C3CCCCC3)(CC1)CC2)c1ccc(Cl)c(Cl)c1)C(=O)c1cc(C(F)(F)F)cc(C(F)(F)F)c1 :: active

// return assay outcome for CC(=O)N1CCN(c2ccc(OC[C@H]3CO[C@](Cn4ccnc4)(c4ccc(Cl)cc4Cl)O3)cc2)CC1
active

Recorded test outcome, item NC(=O)c1nc(-c2cccc(-c3cc(F)ccc3OCC(F)(F)C(F)(F)F)c2)n[nH]1
active

###

# assayed-target: Estrogen receptor (Homo sapiens)
# procedure-summary: NVS_NR_hER: NovaScreen (NVS) Nuclear Receptor Binding Assay for human Estrogen Receptor (ER) (AID 2283348)
Records with an inconclusive call do not appear. Calls of active or inactive are those of the source. How the source made its calls: active means hit-call score of the fitted dose curve at least 0.9, where 1 is the maximum; inconclusive means response in the unintended direction; inactive means score below 0.9.
reported-property: AC50

CCCCCCCCOC(=O)c1cc(O)c(O)c(O)c1 :: inactive
NCc1cccc(C2CCN(C(=O)c3ccc(C#Cc4ccccc4F)o3)CC2)c1 :: inactive
CCN(Cc1cccnc1)C(=O)c1cccc(Cl)c1[C@]1(C)C(=O)N(Cc2ccc(OC)cc2OC)c2ccc(Cl)cc21 :: 7.99 µM (active)
CC(C)(O)c1ccc(CNC(=O)c2cccnc2Oc2ccc3nonc3c2)cc1 :: inactive
Cc1c2ccccc2c(C)c2c1ccc1ccccc12 :: inactive

Let's switch to this compound now.
Give the reported AC50 for this compound. CCCCCc1ccc(N)cc1
inactive
